Here the recorded relative viability is given for each entry.
System: NCI-H1734
Assay: relative viability (nuclei count vs DMSO), 5 days (fraction); higher = more cells survive
Settings: first compound 0.4 µM
endpoint.name: relative viability

[
  {
    "compound": "COc1cc(N2CCC(C(N)=O)CC2)ccc1Nc1nc(N)c(Cl)c(Nc2ccccc2S(=O)(=O)C(C)C)n1 [HG-5-88-01] + N=C(N)NC(=N)NCCc1ccccc1 [Phenformin] (partner 250 µM)",
    "system.under.test": "NCI-H1734",
    "measured.number": 0.333
  },
  {
    "compound": "C[C@@H]1CN(CC(=O)Nc2ccc3c(c2)Cc2cccc(-c4cc(=O)cc(N5CCOCC5)o4)c2S3)C[C@H](C)O1 + Cc1cc(Nc2cc(N3CCN(C)CC3)nc(Sc3ccc(NC(=O)C4CC4)cc3)n2)n[nH]1 [Tozasertib] (partner 0.1 µM)",
    "system.under.test": "NCI-H1734",
    "measured.number": 0.261
  },
  {
    "compound": "Clc1ccc(Nc2nnc(Cc3ccncc3)c3ccccc23)cc1 [Vatalanib] + CS(=O)(=O)N1CCN(Cc2cc3nc(-c4cccc5[nH]ncc45)nc(N4CCOCC4)c3s2)CC1 [Pictilisib] (partner 1 µM)",
    "system.under.test": "NCI-H1734",
    "measured.number": 0.503
  },
  {
    "compound": "COc1cc(N2CCC(C(N)=O)CC2)ccc1Nc1nc(N)c(Cl)c(Nc2ccccc2S(=O)(=O)C(C)C)n1 [HG-5-88-01] + O=C(c1cc(Cc2n[nH]c(=O)c3ccccc23)ccc1F)N1CCN(C(=O)C2CC2)CC1 [Olaparib] (partner 8 µM)",
    "system.under.test": "NCI-H1734",
    "measured.number": 0.642
  }
]

* * *

System: NCI-H322M
Assay: relative viability (nuclei count vs DMSO), 5 days (fraction); higher = more cells survive
Conditions: first compound 2.53 µM
Define the label as yes when relative viability is strictly less than 1 and as no in all remaining cases.

[
  {
    "compound": "CCCCCCCCCCCC1=C(O)C(=O)C=C(O)C1=O [Embelin] + CS(=O)(=O)CCNCc1ccc(-c2ccc3ncnc(Nc4ccc(OCc5cccc(F)c5)c(Cl)c4)c3c2)o1 [Lapatinib] (partner 2 µM)",
    "category.label": "yes"
  },
  {
    "compound": "CCCCCCCCCCCC1=C(O)C(=O)C=C(O)C1=O [Embelin] + CC(=O)Nc1cccc(-n2c(=O)n(C3CC3)c(=O)c3c(Nc4ccc(I)cc4F)n(C)c(=O)c(C)c32)c1 [Trametinib] (partner 0.02 µM)",
    "category.label": "yes"
  },
  {
    "compound": "CCCCCCCCCCCC1=C(O)C(=O)C=C(O)C1=O [Embelin] + C[C@]1(O)C[C@@H](c2nc(-c3ccc4ccc(-c5ccccc5)nc4c3)c3c(N)nccn32)C1 [Linsitinib] (partner 1 µM)",
    "category.label": "no"
  },
  {
    "compound": "CCCCCCCCCCCC1=C(O)C(=O)C=C(O)C1=O [Embelin] + COc1cc2c(Oc3ccc(NC(=O)C4(C(=O)Nc5ccc(F)cc5)CC4)cc3F)ccnc2cc1OCCCN1CCOCC1 [Foretinib] (partner 0.25 µM)",
    "category.label": "no"
  },
  {
    "compound": "CCCCCCCCCCCC1=C(O)C(=O)C=C(O)C1=O [Embelin] + Nc1nc2[nH]cc(CCc3ccc(C(=O)N[C@@H](CCC(=O)O)C(=O)O)cc3)c2c(=O)[nH]1 [Pemetrexed] (partner 0.2 µM)",
    "category.label": "yes"
  }
]

* * *

System: HCC-366
Assay: relative viability (nuclei count vs DMSO), 5 days (fraction); higher = more cells survive
Settings: first compound 0.04 µM

[
  {
    "compound": "C[C@@H]1CN(CC(=O)Nc2ccc3c(c2)Cc2cccc(-c4cc(=O)cc(N5CCOCC5)o4)c2S3)C[C@H](C)O1 + O=C(c1cc(Cc2n[nH]c(=O)c3ccccc23)ccc1F)N1CCN(C(=O)C2CC2)CC1 [Olaparib] (partner 8 µM)",
    "relative viability": 0.43
  },
  {
    "compound": "Clc1ccc(Nc2nnc(Cc3ccncc3)c3ccccc23)cc1 [Vatalanib] + O=C(c1cc(Cc2n[nH]c(=O)c3ccccc23)ccc1F)N1CCN(C(=O)C2CC2)CC1 [Olaparib] (partner 8 µM)",
    "relative viability": 0.337
  },
  {
    "compound": "COc1cc(N2CCC(C(N)=O)CC2)ccc1Nc1nc(N)c(Cl)c(Nc2ccccc2S(=O)(=O)C(C)C)n1 [HG-5-88-01] + C[C@@H](Oc1cc(-c2cnn(C3CCNCC3)c2)cnc1N)c1c(Cl)ccc(F)c1Cl [Crizotinib] (partner 1 µM)",
    "relative viability": 0.642
  },
  {
    "compound": "C[C@@H]1CN(CC(=O)Nc2ccc3c(c2)Cc2cccc(-c4cc(=O)cc(N5CCOCC5)o4)c2S3)C[C@H](C)O1 + Cc1nc(NC(=O)N2CCC[C@H]2C(N)=O)sc1-c1ccnc(C(C)(C)C(F)(F)F)c1 [Alpelisib] (partner 2 µM)",
    "relative viability": 0.379
  }
]

* * *

Here the recorded relative viability is given for each entry.
Test system: NCI-H322M
Assay: relative viability (nuclei count vs DMSO), 5 days (fraction); higher = more cells survive
Settings: first compound 0.04 µM

[
  {
    "molecule": "C[C@@H]1CN(CC(=O)Nc2ccc3c(c2)Cc2cccc(-c4cc(=O)cc(N5CCOCC5)o4)c2S3)C[C@H](C)O1 + O=C(CCCCCCC(=O)Nc1ccccc1)NO [Vorinostat] (partner 1 µM)",
    "system.under.test": "NCI-H322M",
    "relative viability": 0.883
  },
  {
    "molecule": "Clc1ccc(Nc2nnc(Cc3ccncc3)c3ccccc23)cc1 [Vatalanib] + CC(C)C[C@H](NC(=O)[C@H](Cc1ccccc1)NC(=O)c1cnccn1)B(O)O [Bortezomib] (partner 0.002 µM)",
    "system.under.test": "NCI-H322M",
    "relative viability": 1.19
  },
  {
    "molecule": "Clc1ccc(Nc2nnc(Cc3ccncc3)c3ccccc23)cc1 [Vatalanib] + NC(=O)Nc1cc(-c2cccc(F)c2)sc1C(=O)N[C@H]1CCCNC1 [AZD7762] (partner 0.2 µM)",
    "system.under.test": "NCI-H322M",
    "relative viability": 0.543
  },
  {
    "molecule": "COc1cc(N2CCC(C(N)=O)CC2)ccc1Nc1nc(N)c(Cl)c(Nc2ccccc2S(=O)(=O)C(C)C)n1 [HG-5-88-01] + C[C@]1(O)C[C@@H](c2nc(-c3ccc4ccc(-c5ccccc5)nc4c3)c3c(N)nccn32)C1 [Linsitinib] (partner 1 µM)",
    "system.under.test": "NCI-H322M",
    "relative viability": 0.892
  },
  {
    "molecule": "Clc1ccc(Nc2nnc(Cc3ccncc3)c3ccccc23)cc1 [Vatalanib] + CCNC(=O)c1noc(-c2cc(C(C)C)c(O)cc2O)c1-c1ccc(CN2CCOCC2)cc1 [Luminespib] (partner 0.01 µM)",
    "system.under.test": "NCI-H322M",
    "relative viability": 0.849
  },
  {
    "molecule": "Clc1ccc(Nc2nnc(Cc3ccncc3)c3ccccc23)cc1 [Vatalanib] + CC(=O)c1c(C)c2cnc(Nc3ccc(N4CCNCC4)cn3)nc2n(C2CCCC2)c1=O [Palbociclib] (partner 0.5 µM)",
    "system.under.test": "NCI-H322M",
    "relative viability": 0.432
  },
  {
    "molecule": "COc1cc(N2CCC(C(N)=O)CC2)ccc1Nc1nc(N)c(Cl)c(Nc2ccccc2S(=O)(=O)C(C)C)n1 [HG-5-88-01] + CC(C)C[C@H](NC(=O)[C@H](Cc1ccccc1)NC(=O)c1cnccn1)B(O)O [Bortezomib] (partner 0.002 µM)",
    "system.under.test": "NCI-H322M",
    "relative viability": 1.22
  },
  {
    "molecule": "C[C@@H]1CN(CC(=O)Nc2ccc3c(c2)Cc2cccc(-c4cc(=O)cc(N5CCOCC5)o4)c2S3)C[C@H](C)O1 + N=C(N)NC(=N)NCCc1ccccc1 [Phenformin] (partner 250 µM)",
    "system.under.test": "NCI-H322M",
    "relative viability": 0.701
  },
  {
    "molecule": "COc1cc(N2CCC(C(N)=O)CC2)ccc1Nc1nc(N)c(Cl)c(Nc2ccccc2S(=O)(=O)C(C)C)n1 [HG-5-88-01] + Cc1nc(NC(=O)N2CCC[C@H]2C(N)=O)sc1-c1ccnc(C(C)(C)C(F)(F)F)c1 [Alpelisib] (partner 2 µM)",
    "system.under.test": "NCI-H322M",
    "relative viability": 0.774
  },
  {
    "molecule": "C[C@@H]1CN(CC(=O)Nc2ccc3c(c2)Cc2cccc(-c4cc(=O)cc(N5CCOCC5)o4)c2S3)C[C@H](C)O1 + O=C(c1cc(Cc2n[nH]c(=O)c3ccccc23)ccc1F)N1CCN(C(=O)C2CC2)CC1 [Olaparib] (partner 8 µM)",
    "system.under.test": "NCI-H322M",
    "relative viability": 0.632
  },
  {
    "molecule": "C[C@@H]1CN(CC(=O)Nc2ccc3c(c2)Cc2cccc(-c4cc(=O)cc(N5CCOCC5)o4)c2S3)C[C@H](C)O1 + Nc1ncn([C@H]2C[C@H](O)[C@@H](CO)O2)c(=O)n1 [Decitabine] (partner 2 µM)",
    "system.under.test": "NCI-H322M",
    "relative viability": 0.526
  },
  {
    "molecule": "C[C@@H]1CN(CC(=O)Nc2ccc3c(c2)Cc2cccc(-c4cc(=O)cc(N5CCOCC5)o4)c2S3)C[C@H](C)O1 + CCNC(=O)c1noc(-c2cc(C(C)C)c(O)cc2O)c1-c1ccc(CN2CCOCC2)cc1 [Luminespib] (partner 0.01 µM)",
    "system.under.test": "NCI-H322M",
    "relative viability": 0.767
  }
]
